# method: protein stability index of a GFP-peptide fusion (yeast GPS) (PSI 1-4); higher = more stable; sorted into four equal gates, so the index is relative within each strain
# run-parameters: pdr5∆
Entries get a class label from measured protein stability index. See ranges: band 1 = under 2, band 2 = from 2 up to 3, band 3 = 3 and over

HEVQYQESSSTLSTHST [SIN4] = band 2
KIDSHVVLSFSGLNADS [PRE6] = band 1
SPTESYSDIGGLESQIQ [RPT2] = band 3
TDLTNNSTDGAKITEIG [YIL149C/MLP2] = band 3
VQMDKIRKIVRKDENQF [AAR2] = band 2

# classify by protein stability index band: QESFVPNSERSGTPTLK [YOR098C/NUP1]
band 2

Which class is correct for the following sequence? STFGFNNSAPNNTNNAN [YJL041W/NSP1]
band 3

Input TFTIKEFVSYYYAHSIP [SNU114] ; output its category
band 1

Given YKGMASNDERIVKRLYE [BRR2] , name the class its protein stability index places it in.
band 3

Lab log: TISKESTPDQRKRVYNI [ESC2] — assign protein stability index category
band 3

Note: place this sequence into its band. Item: DKNKLLLLAAQIVSYCS [SSN2]
band 1

Class (by measured protein stability index) for NSVRNSLLLAHFFSKSC [NUT1]
band 1

Hello team, could you let me know which band the following sequence falls into: ELDTASRILKAQSRNVE [YGR119C/NUP57]
band 2

Which bin should I file MSEEGPQVKIREASKDN [RPB3] under?
band 2
